Where do these numbers come from? They come from PubChem BioAssay (EPA / NIEHS).

Assay: CCTE_Shafer_MEA_dev_network_spike_number: CCTE's Neural Network Formation Assay for Number of Network Spikes, Shafer Lab (AID 2284048);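 note: synchronized bursts across electrodes counted on days 5 7 9 12 and integrated as AUC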
Calls of active or inactive are those of the source. Rule for the calls: active = hit-call score of the fitted dose curve at least 0.9, where 1 is the maximum; inactive = score below 0.9.
Outcomes you can answer with include only these: YES (active), NO (inactive)

For orientation, consider the following solved cases.
                                smiles_code  category
0  O=[N+]([O-])c1cc(C(F)(F)F)c(Cl)c([N+](=O)[O-])c1Nc1ncc(C(F)(F)F)cc1Cl       YES
1  CSC1=N[C@@](C)(c2ccccc2)C(=O)N1Nc1ccccc1        NO
2          CCOP(=S)(OCC)Oc1cc(C)nc(C(C)C)n1        NO

What did the test return for `CCCCSP(=O)(SCCCC)SCCCC` ?
NO

Hi, sorry to bother you, what did the test record for `CC(=NC#N)N(C)Cc1ccc(Cl)nc1` ?
NO

Status in this test for `CCOP(=S)(OCC)Oc1ccc2c(C)c(Cl)c(=O)oc2c1` ?
NO
